TESTED_SYSTEM: Cloned Human Serotonin Receptor, Subtype 7 (h5HT7) (Homo sapiens, UniProt P34969)
Sequence (P34969 whole entry): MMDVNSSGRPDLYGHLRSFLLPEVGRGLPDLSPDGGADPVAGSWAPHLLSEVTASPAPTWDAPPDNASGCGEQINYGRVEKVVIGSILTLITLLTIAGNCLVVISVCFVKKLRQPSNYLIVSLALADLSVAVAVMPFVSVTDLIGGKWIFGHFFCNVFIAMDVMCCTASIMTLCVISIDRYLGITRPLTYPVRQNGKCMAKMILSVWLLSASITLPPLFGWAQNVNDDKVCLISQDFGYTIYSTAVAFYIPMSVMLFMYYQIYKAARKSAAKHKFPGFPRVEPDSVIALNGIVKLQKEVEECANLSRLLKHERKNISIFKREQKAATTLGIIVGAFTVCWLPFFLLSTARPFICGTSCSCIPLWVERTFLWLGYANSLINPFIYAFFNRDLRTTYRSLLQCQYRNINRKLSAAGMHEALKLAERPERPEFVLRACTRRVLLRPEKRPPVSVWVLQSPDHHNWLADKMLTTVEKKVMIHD
Counter-ions that a name gives are not always drawn.
OBSERVATION_TYPE: IC50 (nM)

See these solved cases before continuing.
{"COMPOUND": "CCN(CCCN1CCc2cc(OC)c(OC)c3c2C1CC3)S(=O)(=O)c1ccccc1Cl (stereo not shown) [Compound 111, hydrochloride]", "UNIT_TAG": "nM", "IC50": 8}
{"COMPOUND": "CCN(CCCN1CCc2cc(OC)c(OC)c3c2C1CC3)S(=O)(=O)c1cc(Cl)ccc1Cl (stereo not shown) [Compound 80, hydrochloride]", "UNIT_TAG": "nM", "IC50": 6.2}

A = CCN(CCCN1CCc2cccc3c2C1CC3)S(=O)(=O)c1ccc(C)cc1 (stereo not shown) [Compound 89, hydrochloride]
B = CCN(CCCN1CCc2cccc3c2C1CC3)S(=O)(=O)c1cccc(C)c1 (stereo not shown) [Compound 88, hydrochloride]
Exam item: Looking at recorded values for IC50, does A or B come in lower? Write down the label attached to your selection.
Marked response: B
(B: 4.5 nM, A: 6.7 nM)

Hey, just so you know, these numbers are from patent US7662862B2.
